Subject of test: UniProt:Q12809
Sequence (Q12809 whole entry): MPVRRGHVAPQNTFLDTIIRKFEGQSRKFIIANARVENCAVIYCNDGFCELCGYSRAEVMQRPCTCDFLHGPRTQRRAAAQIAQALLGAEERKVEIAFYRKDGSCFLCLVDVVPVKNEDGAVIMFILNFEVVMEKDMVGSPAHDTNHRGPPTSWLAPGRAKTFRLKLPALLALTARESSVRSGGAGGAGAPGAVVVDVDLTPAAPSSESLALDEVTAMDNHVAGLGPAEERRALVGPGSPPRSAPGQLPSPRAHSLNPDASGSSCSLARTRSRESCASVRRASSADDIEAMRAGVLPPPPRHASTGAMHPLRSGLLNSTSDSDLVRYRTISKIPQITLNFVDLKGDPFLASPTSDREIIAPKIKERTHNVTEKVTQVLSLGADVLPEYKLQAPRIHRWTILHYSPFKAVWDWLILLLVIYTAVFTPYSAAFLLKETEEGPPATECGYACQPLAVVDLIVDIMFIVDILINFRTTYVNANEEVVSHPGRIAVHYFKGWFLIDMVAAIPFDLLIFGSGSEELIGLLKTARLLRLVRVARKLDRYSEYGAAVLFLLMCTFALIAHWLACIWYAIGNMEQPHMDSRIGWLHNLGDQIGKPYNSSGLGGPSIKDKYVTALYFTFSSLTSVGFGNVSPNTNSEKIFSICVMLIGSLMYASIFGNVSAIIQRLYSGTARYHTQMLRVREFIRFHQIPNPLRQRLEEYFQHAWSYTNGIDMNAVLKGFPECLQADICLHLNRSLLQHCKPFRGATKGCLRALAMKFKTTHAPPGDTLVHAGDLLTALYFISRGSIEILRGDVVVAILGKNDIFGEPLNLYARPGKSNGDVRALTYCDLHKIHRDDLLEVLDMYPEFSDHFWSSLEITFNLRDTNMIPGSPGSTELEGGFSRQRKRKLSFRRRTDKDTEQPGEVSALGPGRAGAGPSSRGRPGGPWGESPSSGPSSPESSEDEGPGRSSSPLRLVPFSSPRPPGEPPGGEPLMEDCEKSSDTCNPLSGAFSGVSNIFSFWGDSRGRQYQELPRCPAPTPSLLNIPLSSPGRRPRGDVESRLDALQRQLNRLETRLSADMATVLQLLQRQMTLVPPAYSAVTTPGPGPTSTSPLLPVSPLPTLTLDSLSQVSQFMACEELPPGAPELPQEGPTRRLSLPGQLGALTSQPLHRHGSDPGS
Procedure summary: hERG Manual Patch Clamp Assay
Assay type: cell-based
Protocol conditions: human, HEK 293 cells stably expressing hERG channels, pH 7.4, 1 uM, read-out: hERG EP % Inh @ 1 uM
Label rule, in plain words: inhibition at 1 µM of 10% and up is T, under 10% is F.

These solved cases illustrate the format of a correct answer.
{"Molecule": "Cc1cc(-n2nc(C)c(CN3CCN[C@H](c4ccc5c(c4C)COC5=O)C3)n2)ncc1C#N [Example 169-I]", "Subject of test": "UniProt:Q12809", "Label class": "T"}
{"Molecule": "Cc1cc(-n2cc(CN3CCN[C@H](c4ccc5c(c4C)COC5=O)C3)c(C)n2)ncc1C#N [Example 145-I]", "Subject of test": "UniProt:Q12809", "Label class": "T"}
{"Molecule": "Cc1cc(-n2nc(C)c(CN3CC(c4ccc5c(c4C)COC5=O)NC(C)(C)C3)n2)ncc1C#N (single isomer, unassigned) [Example 175-I]", "Subject of test": "UniProt:Q12809", "Label class": "T"}
{"Molecule": "Cc1cc(-n2cc(CN3CC(c4ccc5c(c4C)COC5=O)OC(C)(C)C3)cn2)ncc1C#N (single isomer, unassigned) [Example 256-II]", "Subject of test": "UniProt:Q12809", "Label class": "T"}
{"Molecule": "COc1cc(-c2ncc(CN3CCO[C@H](c4ccc5c(c4C)COC5=O)C3)s2)ncc1C#N [Example 32-I]", "Subject of test": "UniProt:Q12809", "Label class": "F"}

Now for another entry.
[Q] Is reported inhibition at 1 µM greater than or equal to 10% here: COc1cc(-n2cnc(CN3C[C@@H](c4ccc5c(c4C)COC5=O)N[C@@H](C)C3)c2)ccc1C#N [Example 101-I]
[A] F

###

Subject of test: hROMK (human Kir1.1) (Homo sapiens (Human))
Sequence (P48048 whole entry): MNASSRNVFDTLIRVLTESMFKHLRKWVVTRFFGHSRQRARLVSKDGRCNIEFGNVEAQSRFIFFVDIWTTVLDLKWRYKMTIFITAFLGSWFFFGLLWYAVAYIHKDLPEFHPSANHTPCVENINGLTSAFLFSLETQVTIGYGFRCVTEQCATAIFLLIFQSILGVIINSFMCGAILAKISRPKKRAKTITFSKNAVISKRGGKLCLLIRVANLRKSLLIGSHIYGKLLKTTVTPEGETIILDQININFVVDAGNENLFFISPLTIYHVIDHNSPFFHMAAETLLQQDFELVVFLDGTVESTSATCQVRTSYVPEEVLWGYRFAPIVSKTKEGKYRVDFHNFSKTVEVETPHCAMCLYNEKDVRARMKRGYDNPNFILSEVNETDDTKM
Procedure summary: cell-based
Protocol conditions: CHO T-Rex hROMK stable cell line; thallium flux; 10-point concentration response curve; read-out: Human ROMK Th Flux IC50
Please use Yes for IC50 under 50 nM and No for everything else, ties included.

These solved cases illustrate the format of a correct answer.
{"Compound": "Cc1c([C@@H]2CN(Cc3cnn(-c4cncc(C#N)c4)c3)CCO2)ccc2c1COC2=O [Example 42-I]", "Label class": "No"}
{"Compound": "Cc1cn(-c2ccc(CN3CCN[C@H](c4ccc5c(c4C)COC5=O)C3)cn2)nc1C#N [Example 242-I]", "Label class": "Yes"}
{"Compound": "Cc1cc(-n2cc(CN3CC(c4ccc5c(c4C)COC5=O)NC(C(C)(C)O)C3)cn2)ncc1C#N (single isomer, unassigned) [Example 213-I]", "Label class": "No"}
{"Compound": "COc1cc(-n2cc(CN3CCN[C@H](c4ccc5c(c4C)COC5=O)C3)cn2)cc2c1oc(=O)n2C [Example 56-I]", "Label class": "No"}
{"Compound": "COc1cc(-n2cc(CCN3CCO[C@H](c4ccc5c(c4C)COC5=O)C3)cn2)ncc1C#N [Example 11-I]", "Label class": "Yes"}

[Q] hey, is IC50 for Cc1cc(-n2cc(CN3C[C@@H](c4ccc5c(c4C)COC5=O)OCC3=O)cn2)ncc1C#N [Example 10-I] lower than 50 nM or not?
[A] No

[Q] hey, is IC50 for Cc1nc(-n2ncc(CN3C[C@H](CO)N[C@H](c4ccc5c(c4C)COC5=O)C3)n2)ncc1C#N [Example 104-I] lower than 50 nM or not?
[A] Yes

[Q] hey, is IC50 for Cc1cn(-c2ncc(CN3CCO[C@H](c4ccc5c(c4C)COC5=O)C3)s2)cn1 [Example 36-I] lower than 50 nM or not?
[A] No

[Q] hey, is IC50 for Cc1c([C@@H]2CN(Cc3cnn(-c4cc(N5CCOCC5)c(C#N)cn4)c3)CCN2)ccc2c1COC2=O [Example 220-I] lower than 50 nM or not?
[A] Yes

[Q] hey, is IC50 for Cc1c(C2CN(Cc3cnn(-c4ccc5oc(=O)n(C)c5c4)c3)CCC2(F)F)ccc2c1COC2=O (stereo not shown) [Example 4] lower than 50 nM or not?
[A] No

[Q] hey, is IC50 for COc1c(CN2CCN[C@H](c3ccc4c(c3C)COC4=O)C2)cnn1-c1cc(C)c(C#N)cn1 [Example 6-I] lower than 50 nM or not?
[A] Yes

[Q] hey, is IC50 for Cc1cn(-c2cc(C)c(CN3CCN[C@H](c4ccc5c(c4C)COC5=O)C3)cn2)cn1 [Example 141-I] lower than 50 nM or not?
[A] No
